# experimental system: Adenosine receptor A1 (Homo sapiens, UniProt P30542)
# Sequence (P30542 whole entry): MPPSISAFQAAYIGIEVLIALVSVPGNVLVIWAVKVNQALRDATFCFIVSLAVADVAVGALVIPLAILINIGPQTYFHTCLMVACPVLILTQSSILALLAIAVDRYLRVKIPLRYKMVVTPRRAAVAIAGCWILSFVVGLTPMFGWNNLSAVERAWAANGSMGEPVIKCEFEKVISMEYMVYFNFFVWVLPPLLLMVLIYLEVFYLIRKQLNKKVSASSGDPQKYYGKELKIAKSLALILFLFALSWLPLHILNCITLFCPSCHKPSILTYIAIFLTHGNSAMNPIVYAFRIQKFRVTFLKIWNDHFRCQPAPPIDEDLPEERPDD
Mark 1 for Ki under 1000 nM, 0 if at or over.

For orientation, consider the following solved cases.
CCNC(=O)[C@H]1O[C@@H](n2cnc3c(N)nc(NCCc4ccc(CCC(=O)N[C@@H](Cc5ccccc5)C(=O)O)cc4)nc32)[C@H](O)[C@@H]1O    1
CCNC(=O)[C@H]1O[C@@H](n2cnc3c(N)nc(NCCc4ccc(CCC(=O)N[C@@H](CCCN=C(N)N)C(=O)O)cc4)nc32)[C@H](O)[C@@H]1O    0
CCNC(=O)[C@H]1O[C@@H](n2cnc3c(N)nc(NCCc4ccc(CCC(=O)N[C@H](Cc5ccccc5)C(=O)O)cc4)nc32)[C@H](O)[C@@H]1O    1
CCNC(=O)[C@H]1O[C@@H](n2cnc3c(N)nc(NCCc4ccc(CCC(=O)N[C@H](CC(=O)O)C(=O)O)cc4)nc32)[C@H](O)[C@@H]1O    0
CCNC(=O)[C@H]1O[C@@H](n2cnc3c(N)nc(NCCc4ccc(CCC(=O)N[C@@H](Cc5c[nH]c6ccccc56)C(=O)O)cc4)nc32)[C@H](O)[C@@H]1O    0

Just wondering, is Ki of CCNC(=O)[C@H]1O[C@@H](n2cnc3c(N)nc(NCCc4ccc(CCC(=O)N[C@@H](CC(=O)O)C(=O)O)cc4)nc32)[C@H](O)[C@@H]1O below 1000 nM?
0

API: query returns whether the compound falls strictly under 1000 nM in Ki. Query: CCNC(=O)[C@H]1O[C@@H](n2cnc3c(N)nc(NCCc4ccc(CCC(=O)N[C@H](Cc5c[nH]c6ccccc56)C(=O)OC)cc4)nc32)[C@H](O)[C@@H]1O
0

Would you kindly verify if Ki of CCNC(=O)[C@H]1O[C@@H](n2cnc3c(N)nc(NCCc4ccc(CCC(=O)N[C@H](Cc5ccccc5)C(=O)OC)cc4)nc32)[C@H](O)[C@@H]1O is strictly less than 1000 nM?
0

Below 1000 nM on Ki? Entry CCNC(=O)[C@H]1O[C@@H](n2cnc3c(N)nc(NCCc4ccc(CCC(=O)N[C@H](Cc5c[nH]c6ccccc56)C(=O)O)cc4)nc32)[C@H](O)[C@@H]1O
0

Bench note: check whether CCNC(=O)[C@H]1O[C@@H](n2cnc3c(N)nc(NCCc4ccc(CCC(=O)N[C@H](Cc5c[nH]cn5)C(=O)O)cc4)nc32)[C@H](O)[C@@H]1O shows Ki below 1000 nM
1
